Data provenance: paper PMC5700166

Biological target: GST-Aq-NF-kB (Amphimedon queenslandica, UniProt A9Y5G7 2-389)
Sequence: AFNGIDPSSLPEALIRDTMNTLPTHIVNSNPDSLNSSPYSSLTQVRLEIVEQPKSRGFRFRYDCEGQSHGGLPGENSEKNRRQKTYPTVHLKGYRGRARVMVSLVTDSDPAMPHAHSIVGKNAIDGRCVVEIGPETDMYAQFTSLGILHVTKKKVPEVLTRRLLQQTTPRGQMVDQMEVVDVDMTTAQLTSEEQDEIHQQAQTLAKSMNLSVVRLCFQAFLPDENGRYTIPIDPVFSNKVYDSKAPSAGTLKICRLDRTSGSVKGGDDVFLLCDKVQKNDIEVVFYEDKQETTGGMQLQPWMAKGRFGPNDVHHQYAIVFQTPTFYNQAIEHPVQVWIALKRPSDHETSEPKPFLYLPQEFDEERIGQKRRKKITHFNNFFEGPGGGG
Experiment: protein-binding microarray (PBM); PBM: ~300 nM protein, 6 mM HEPES pH 7.8, 80 mM KCl, 0.5 mM EDTA, 0.5 mM EGTA, 6% glycerol, 35 ng/ul poly-dIdC, 1% milk, 1 h, room temperature; Ap Aiptasia and Nv Nematostella (sea anemones) / Co Capsaspora / Aq Amphimedon (sponge) / Dm Drosophila / Hu human; RHD is the Rel homology domain; high values mean tight binding
Conditions: dsDNA, one strand shown

sequence code | measurement target | binding signal / z-score
CCGATTAACATCAGGTAATCCCATGATGTTAATCGGGTCTTGATTCGCTTGACGCTGCTG | GST-Aq-NF-kB (Amphimedon queenslandica, UniProt A9Y5G7 2-389) | 3.49
CCGATTAACATCAGGGGGGTGAATGATGTTAATCGGGTCTTGATTCGCTTGACGCTGCTG | GST-Aq-NF-kB (Amphimedon queenslandica, UniProt A9Y5G7 2-389) | 4.32
CCGATTAACATCAGGGGGTTCTATGATGTTAATCGGGTCTTGATTCGCTTGACGCTGCTG | GST-Aq-NF-kB (Amphimedon queenslandica, UniProt A9Y5G7 2-389) | 5.33
CCGATTAACATCAGGGGGGGGAATGATGTTAATCGGGTCTTGATTCGCTTGACGCTGCTG | GST-Aq-NF-kB (Amphimedon queenslandica, UniProt A9Y5G7 2-389) | 5.65
CCGATTAACATCAACACCCCCCTTGATGTTAATCGGGTCTTGATTCGCTTGACGCTGCTG | GST-Aq-NF-kB (Amphimedon queenslandica, UniProt A9Y5G7 2-389) | 5.24
CCGATTAACATCAGGGGGTATTATGATGTTAATCGGGTCTTGATTCGCTTGACGCTGCTG | GST-Aq-NF-kB (Amphimedon queenslandica, UniProt A9Y5G7 2-389) | 5.8
CCGATTAACATCAAGAAATTACCTGATGTTAATCGGGTCTTGATTCGCTTGACGCTGCTG | GST-Aq-NF-kB (Amphimedon queenslandica, UniProt A9Y5G7 2-389) | 2.27
CCGATTAACATCAGAGTTCCCCCTGATGTTAATCGGGTCTTGATTCGCTTGACGCTGCTG | GST-Aq-NF-kB (Amphimedon queenslandica, UniProt A9Y5G7 2-389) | 6.05
CCGATTAACATCATAAGGGGTGTTGATGTTAATCGGGTCTTGATTCGCTTGACGCTGCTG | GST-Aq-NF-kB (Amphimedon queenslandica, UniProt A9Y5G7 2-389) | 1.91
CCGATTAACATCACCCATTCCCCTGATGTTAATCGGGTCTTGATTCGCTTGACGCTGCTG | GST-Aq-NF-kB (Amphimedon queenslandica, UniProt A9Y5G7 2-389) | 4.22
CCGATTAACATCAGGCCCCCCCCTGATGTTAATCGGGTCTTGATTCGCTTGACGCTGCTG | GST-Aq-NF-kB (Amphimedon queenslandica, UniProt A9Y5G7 2-389) | 5.74
CCGATTAACATCACAGCCCCCCCTGATGTTAATCGGGTCTTGATTCGCTTGACGCTGCTG | GST-Aq-NF-kB (Amphimedon queenslandica, UniProt A9Y5G7 2-389) | 3.82
CCGATTAACATCAACCCTCCCCCTGATGTTAATCGGGTCTTGATTCGCTTGACGCTGCTG | GST-Aq-NF-kB (Amphimedon queenslandica, UniProt A9Y5G7 2-389) | 3.64
CCGATTAACATCACATTTCCCCATGATGTTAATCGGGTCTTGATTCGCTTGACGCTGCTG | GST-Aq-NF-kB (Amphimedon queenslandica, UniProt A9Y5G7 2-389) | 3.87
CCGATTAACATCAGGGAAGACCCTGATGTTAATCGGGTCTTGATTCGCTTGACGCTGCTG | GST-Aq-NF-kB (Amphimedon queenslandica, UniProt A9Y5G7 2-389) | 7.06
CCGATTAACATCAAAAAACTACCTGATGTTAATCGGGTCTTGATTCGCTTGACGCTGCTG | GST-Aq-NF-kB (Amphimedon queenslandica, UniProt A9Y5G7 2-389) | 3.57
CCGATTAACATCACAAATTACCCTGATGTTAATCGGGTCTTGATTCGCTTGACGCTGCTG | GST-Aq-NF-kB (Amphimedon queenslandica, UniProt A9Y5G7 2-389) | 4.95
CCGATTAACATCAACTTTTCCCCTGATGTTAATCGGGTCTTGATTCGCTTGACGCTGCTG | GST-Aq-NF-kB (Amphimedon queenslandica, UniProt A9Y5G7 2-389) | 5.09
